- measured_target: ASBT (Homo sapiens, UniProt Q12908)
- Construct: The full-length open reading frames of NTCP, ASBT, and SOAT were cloned; expressed in transfected cells; host or cells: Flp-In T-REX HEK293 (ASBT-HEK293), tetracycline-induced
- Sequence (Q12908 whole entry): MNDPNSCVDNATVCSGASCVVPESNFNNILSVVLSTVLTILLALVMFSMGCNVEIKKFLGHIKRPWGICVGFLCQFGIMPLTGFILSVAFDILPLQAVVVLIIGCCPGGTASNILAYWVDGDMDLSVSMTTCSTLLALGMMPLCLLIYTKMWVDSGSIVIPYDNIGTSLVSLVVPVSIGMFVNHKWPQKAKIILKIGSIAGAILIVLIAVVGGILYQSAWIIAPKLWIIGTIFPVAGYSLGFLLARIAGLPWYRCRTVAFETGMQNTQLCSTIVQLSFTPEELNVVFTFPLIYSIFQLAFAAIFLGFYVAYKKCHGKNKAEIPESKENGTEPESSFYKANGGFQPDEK
- assay_notes: Transport inhibition in ASBT-HEK293 cells
- Type: cell-based
- particulars: ASBT IC50, substrate [3H]TLC, triterpenoid inhibitors; 1 µM [3H]TLC, 10 min after 5 min preincubation
readout_kind: IC50 (µM)
Just the number please, in µM, no unit attached.

Log: ASBT (Homo sapiens, UniProt Q12908), compound C=C(C)[C@@H]1CC[C@]2(CO)CC[C@]3(C)[C@H](CC[C@@H]4[C@@]5(C)CC[C@H](O)C(C)(C)[C@@H]5CC[C@]43C)[C@@H]12 , IC50 = 192

---

- measured_target: SOAT (Homo sapiens, UniProt Q3KNW5)
- Construct: The full-length open reading frames of NTCP, ASBT, and SOAT were cloned; expressed in transfected cells; host or cells: Flp-In T-REX HEK293 (SOAT-HEK293), tetracycline-induced
- Sequence (Q3KNW5 1-377): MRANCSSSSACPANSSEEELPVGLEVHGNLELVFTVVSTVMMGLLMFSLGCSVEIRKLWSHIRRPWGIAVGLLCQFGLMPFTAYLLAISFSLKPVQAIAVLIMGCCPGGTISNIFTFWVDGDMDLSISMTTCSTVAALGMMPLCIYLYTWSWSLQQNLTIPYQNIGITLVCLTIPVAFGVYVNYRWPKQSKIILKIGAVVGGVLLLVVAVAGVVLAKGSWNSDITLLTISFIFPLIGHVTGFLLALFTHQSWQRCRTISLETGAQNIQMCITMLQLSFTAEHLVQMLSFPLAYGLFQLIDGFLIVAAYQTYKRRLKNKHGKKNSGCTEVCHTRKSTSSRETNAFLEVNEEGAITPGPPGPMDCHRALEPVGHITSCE
- assay_notes: Transport inhibition in SOAT-HEK293 cells
- Assay type: cell-based
- particulars: SOAT IC50, substrate [3H]DHEAS, substrate inhibitors; 200 nM [3H]DHEAS, 1 min after 5 min preincubation
Structures can show the parent of a compound that is named as a salt.
readout_kind: pIC50
Scale: pIC50 equals -log10([C]), with [C] in mol/L.

[[record]]
molecule = "C[C@H](CCC(=O)NCCS(=O)(=O)O)[C@H]1CC[C@H]2[C@@H]3[C@H](O)C[C@@H]4C[C@H](O)CC[C@]4(C)[C@H]3C[C@H](O)[C@]12C"
quantitative_result = 4.00


// next entry
So, C[C@]12CC[C@H](OS(=O)(=O)O)CC1=CC[C@@H]1[C@@H]2CC[C@]2(C)C(=O)CC[C@@H]12 [DHEAS, Dehydroepiandrosterone sulfate] ? Its pIC50 was 4.29

---

- measured_target: NTCP (Homo sapiens, UniProt Q14973)
- Sequence (Q14973 whole entry): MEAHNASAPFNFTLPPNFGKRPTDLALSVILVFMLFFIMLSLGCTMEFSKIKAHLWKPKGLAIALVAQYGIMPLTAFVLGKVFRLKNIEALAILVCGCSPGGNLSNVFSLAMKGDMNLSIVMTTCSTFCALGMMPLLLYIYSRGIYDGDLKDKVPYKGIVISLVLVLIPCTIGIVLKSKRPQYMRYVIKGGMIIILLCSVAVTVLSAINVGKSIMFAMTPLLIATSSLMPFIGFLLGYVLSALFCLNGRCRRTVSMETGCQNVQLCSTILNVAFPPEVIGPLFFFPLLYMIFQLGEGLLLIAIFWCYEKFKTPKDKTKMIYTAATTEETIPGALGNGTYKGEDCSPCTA
- assay_notes: Transport inhibition in NTCP-HEK293 cells
- particulars: NTCP IC50, substrate [3H]TC, substrate inhibitors; 200 nM [3H]TC, 1 min after 5 min preincubation
Structures can show the parent of a compound that is named as a salt.
Measured IC50 accompanies every entry in the list below.
Just the number please, in µM, no unit attached.

[[record]]
compound = "C[C@H](CCC(=O)NCCS(=O)(=O)O)[C@H]1CC[C@H]2[C@@H]3CC[C@@H]4C[C@H](O)CC[C@]4(C)[C@H]3CC[C@]12C"
quantitative_result = 1.7


// next entry
So, C[C@]12CC[C@H](OS(=O)(=O)O)CC1=CC[C@@H]1[C@@H]2CC[C@]2(C)C(=O)CC[C@@H]12 [DHEAS, Dehydroepiandrosterone sulfate] ? Its IC50 was 21.5

Each recorded value in this set is attributed to paper PMC8165160.
